Ref: PubChem BioAssay (NCI)

- Tested on: SNB-75 CNS
- method: NCI tumour cell line growth inhibition, 48 h
Measured TGI, listed per entry for reference.

{"compound": "COC12CCCN1c1ccn(Cc3ccccc3)c(=O)c1C2=O (stereo not given)", "modifier.sign": ">", "TGI (µM)": 100}
{"compound": "COc1cc(OC)c2nccc(NCCCN(C)C)c2c1[N+](=O)[O-]", "modifier.sign": ">", "TGI (µM)": 100}
{"compound": "O=S(=O)(O)c1ccc(N=Nc2nc(C(F)(F)F)c(C(F)(F)F)[nH]2)cc1", "modifier.sign": ">", "TGI (µM)": 100}
{"compound": "CCOC(=O)c1c(C)n(Cc2ccccc2)c2c1cc(O)c1[nH]c(Cc3ccccc3)nc12", "modifier.sign": "=", "TGI (µM)": 42.3}
{"compound": "CCN(CC)C(=S)Nc1ccc(-c2cc3ccc(O)cc3oc2=O)cc1", "modifier.sign": ">", "TGI (µM)": 100}
{"compound": "O=c1[nH]c2ccccc2c(O)c1/C=N/C(=S)NCc1ccccc1", "modifier.sign": ">", "TGI (µM)": 100}
{"compound": "CSc1cc(-c2ccccn2)nc(-c2ccccn2)c1", "modifier.sign": "=", "TGI (µM)": 13.6}
{"compound": "COc1cc(C2SC(C)C(=O)N2c2ccc(-c3csc(NS(=O)(=O)c4ccc(Cl)c(OC)c4)n3)cc2)ccc1O (stereo not given)", "modifier.sign": "=", "TGI (µM)": 61}
{"compound": "N#CC1CCCCOCCOCCOCCOCCOCCCCCC1=O (stereo not given)", "modifier.sign": ">", "TGI (µM)": 100}
{"compound": "COc1ccc(C(c2ccc(OCCN(C)C)cc2)c2cc3ccccc3c3ccccc23)cc1 (stereo not given)", "modifier.sign": "=", "TGI (µM)": 2.74}

---

- Tested on: HCT-116 colon
- method: NCI tumour cell line growth inhibition, 48 h
Measured TGI, listed per entry for reference.

{"molecule": "Cc1nc2c(o1)C(=Nc1ccccc1)c1ccccc1C2=O", "target.desc": "HCT-116 colon", "TGI": "23.2 µM"}
{"molecule": "Cc1cn(C2CC(N)C(C(=O)NCC(=O)O)O2)c(=O)[nH]c1=O (stereo unspecified)", "target.desc": "HCT-116 colon", "TGI": "> 100 µM"}
{"molecule": "O=S(=O)(O)c1ccc(N=Nc2nc(C(F)(F)F)c(C(F)(F)F)[nH]2)cc1", "target.desc": "HCT-116 colon", "TGI": "> 100 µM"}
{"molecule": "O=C(O)C1CC2(C1)CC(C(=O)O)C2 (stereo unspecified)", "target.desc": "HCT-116 colon", "TGI": "> 100 µM"}
{"molecule": "S=c1nc(COc2ccc(Cl)cc2Cl)[nH][nH]1", "target.desc": "HCT-116 colon", "TGI": "> 100 µM"}
{"molecule": "O=C(CCC(=O)CC(O)(C(F)(F)F)C(F)(F)F)CC(O)(C(F)(F)F)C(F)(F)F", "target.desc": "HCT-116 colon", "TGI": "> 100 µM"}
{"molecule": "COc1ccc(NC(=O)CC(=O)n2nc(C)c(N=Nc3cccc(C)c3)c2C)cc1", "target.desc": "HCT-116 colon", "TGI": "> 100 µM"}
{"molecule": "Cn1c(=O)c(NC(=O)C(Cl)(Cl)Cl)nc2ccccc21", "target.desc": "HCT-116 colon", "TGI": "> 100 µM"}
{"molecule": "COC(OC)C1OCC(n2cc(F)c(=O)[nH]c2=O)C1O (stereo unspecified)", "target.desc": "HCT-116 colon", "TGI": "> 100 µM"}
{"molecule": "CSc1cc(-c2ccccn2)nc(-c2ccccn2)c1", "target.desc": "HCT-116 colon", "TGI": "11.7 µM"}
{"molecule": "CC(=O)OCC1OC(OCCCCCCO)C(OC(C)=O)C(OC(C)=O)C1OC(C)=O (stereo unspecified)", "target.desc": "HCT-116 colon", "TGI": "> 100 µM"}
{"molecule": "N#Cc1c(Br)n(C2OC(CO)C(O)C2O)c2ncnc(N)c12 (stereo unspecified)", "target.desc": "HCT-116 colon", "TGI": "> 77.7 µM"}
{"molecule": "COc1ccc2c(c1)CC[C@@H]1[C@@H]2CC[C@]2(C)[C@@H](NC(=O)/C=C/c3ccc(O)c(O)c3)CC[C@@H]12", "target.desc": "HCT-116 colon", "TGI": "10.4 µM"}
{"molecule": "O=C(CCCCCCCCC(=O)N1C(=O)CC(=O)N(c2ccccc2)C1=S)N1C(=O)CC(=O)N(c2ccccc2)C1=S", "target.desc": "HCT-116 colon", "TGI": "> 100 µM"}
{"molecule": "CCCCCCCCCCCCCCCCNCCCN(C)CCCN", "target.desc": "HCT-116 colon", "TGI": "38 µM"}
{"molecule": "O=[N+]([O-])c1ccccc1S(=O)(=O)c1ccccc1", "target.desc": "HCT-116 colon", "TGI": "> 100 µM"}
{"molecule": "NC(=O)c1ccccc1NC(=O)C(=O)Cc1nc2ccccc2[nH]c1=O", "target.desc": "HCT-116 colon", "TGI": "> 100 µM"}
{"molecule": "O=S(OC12CC3CC(CC(C3)C1)C2)c1cc(Cl)cc(Cl)c1OCc1ccccc1 (stereo unspecified)", "target.desc": "HCT-116 colon", "TGI": "> 100 µM"}
{"molecule": "CN(Cc1cccc(F)c1)c1ccc(CO)c(Cl)c1", "target.desc": "HCT-116 colon", "TGI": "13.7 µM"}
{"molecule": "COc1cc(C2c3cc4c(cc3OC(Nc3ccccc3)C2C)OCO4)cc(OC)c1O (stereo unspecified)", "target.desc": "HCT-116 colon", "TGI": "16 µM"}
{"molecule": "O=C(CCCCCC(=O)N1CC(CCl)c2ccc([N+](=O)[O-])cc21)N1CC(CCl)c2ccc([N+](=O)[O-])cc21 (stereo unspecified)", "target.desc": "HCT-116 colon", "TGI": "> 100 µM"}
{"molecule": "O=c1sc2c(s1)-c1sc(=O)sc1SS2", "target.desc": "HCT-116 colon", "TGI": "> 100 µM"}
{"molecule": "O=C1NC(=O)C(=Nc2cccc3c(=O)[nH][nH]c(=O)c23)C(c2nc3ccccc3s2)C1=O (stereo unspecified)", "target.desc": "HCT-116 colon", "TGI": "> 100 µM"}
{"molecule": "O=C1c2ccccc2C(=O)c2sc(Nc3ccccc3C(F)(F)F)nc21", "target.desc": "HCT-116 colon", "TGI": "> 100 µM"}
{"molecule": "CN(C)c1ccc(C=C2C(=O)N(c3ccccc3)N(c3ccccc3)C2=O)cc1", "target.desc": "HCT-116 colon", "TGI": "> 100 µM"}
{"molecule": "CCOC(=O)c1nc2ccccc2nc1Oc1ccc(C(=O)OC)cc1", "target.desc": "HCT-116 colon", "TGI": "> 100 µM"}
{"molecule": "COC(=O)CCc1ccc2c(c1)C(=O)CC2", "target.desc": "HCT-116 colon", "TGI": "> 100 µM"}
{"molecule": "COc1ccc(/C=C2\\CCS(=O)(=O)c3ccccc3C2=O)cc1OC", "target.desc": "HCT-116 colon", "TGI": "> 100 µM"}
{"molecule": "CN(C)c1ccc(/C=C/c2ccc(/C=C/c3ccc(N(C)C)cc3)cc2)cc1", "target.desc": "HCT-116 colon", "TGI": "> 100 µM"}
{"molecule": "CC(=O)c1c(CN(C)c2ccccc2)n([O-])c2ccccc2[n+]1=O", "target.desc": "HCT-116 colon", "TGI": "> 100 µM"}
{"molecule": "COc1cc2oc(=O)cc(C)c2cc1O", "target.desc": "HCT-116 colon", "TGI": "> 100 µM"}
{"molecule": "ON(Cc1ccccc1)C(=S)c1ccccc1", "target.desc": "HCT-116 colon", "TGI": "51.6 µM"}
{"molecule": "O=c1cc(NNc2cccc(F)c2)[nH]c(=O)[nH]1", "target.desc": "HCT-116 colon", "TGI": "31 µM"}
{"molecule": "CC1=CC(=O)C(C(C)C)=CC1=Nc1cc(Br)c(O)c(Br)c1", "target.desc": "HCT-116 colon", "TGI": "11.6 µM"}
{"molecule": "C=CC(OC(C)=O)c1ccc(OC(=O)C(C)C)c(OC)c1 (stereo unspecified)", "target.desc": "HCT-116 colon", "TGI": "22.5 µM"}
{"molecule": "NC1=NC(c2ccc(Cl)cc2)N(c2ccc(S(N)(=O)=O)cc2)C(N)=N1 (stereo unspecified)", "target.desc": "HCT-116 colon", "TGI": "> 100 µM"}
{"molecule": "CCCCCCCC(CC(=O)NC(CO)C(=O)NC(CO)CC(C)C)OC(=O)CC(CCCCCCC)OC(=O)CC(CCCCCCC)OC1OC(C)C(O)C(OC2OC(C)C(O)C(O)C2OC(C)=O)C1O (stereo unspecified)", "target.desc": "HCT-116 colon", "TGI": "15.1 µM"}
{"molecule": "Nc1cc(O)ccc1N=Nc1ccc(-c2nc3ccccc3[nH]2)cc1", "target.desc": "HCT-116 colon", "TGI": "> 100 µM"}
{"molecule": "CC(=O)OC1=CC2=CC[C@H]3[C@@H]4CCC(=O)[C@@]4(C)CC(=O)[C@]3(S)[C@@]2(C)CC1", "target.desc": "HCT-116 colon", "TGI": "49.3 µM"}
{"molecule": "COc1cccc(-c2ccc3c(c2)C2CCN(Cc4ccccc4)C3C2)c1 (stereo unspecified)", "target.desc": "HCT-116 colon", "TGI": "23.6 µM"}
{"molecule": "C=C1c2nc3ccccc3n2C=C(c2ccc(C)cc2)N1c1ccc(C)cc1", "target.desc": "HCT-116 colon", "TGI": "> 100 µM"}
